- METHOD SUMMARY: Comparison of DPC 333 pharmacokinetics by gender in fasted subjects
- Assay type: in vivo, human
- CONDITION LABEL: female, human, plasma, oral, 225 mg, Females (n = 6), Part 1: 225 mg (fasted); read-out: Tmax (median)
MEASUREMENT TYPE: Tmax (min)
Form entry: value (min) — number only.

input: Name the reported Tmax value associated with the compound Cc1cc(COc2ccc([C@]3(N)CCN([C@H](CC(C)C)C(=O)NO)C3=O)cc2)c2ccccc2n1
output: 30.6

* * *

- METHOD SUMMARY: Double-blind, placebo controlled, ascending single dose pharmacokinetic study of oral DPC 333 in healthy subjects
- Type: in vivo, human
- CONDITION LABEL: both sexes, human, plasma, po, 25 mg, single oral dose 25 mg, healthy volunteers, n = 6; read-out: T½ Mean (harmonic mean) (converted)
- Protocol: The safety, tolerability, and pharmacokinetics of an oral dose form of DPC 333 were evaluated in a double-blind, placebo controlled, ascending single dose study in healthy male and female human subjects. Subjects in each cohort were randomized to receive either a single dose of DPC 333 (n=6) or placebo (n=2). […] The following pharmacokinetic parameters for DPC 333 were assessed following a single dose administration of the DPC 333 oral dosage form to a subject: Cmax, Tmax, AUC, T1/2, Clo, and C12. […]
MEASUREMENT TYPE: half-life (h)
Form entry: value (h) — number only.

input: Name the reported half-life value associated with the molecule Cc1cc(COc2ccc([C@]3(N)CCN([C@H](CC(C)C)C(=O)NO)C3=O)cc2)c2ccccc2n1
output: 2.86

* * *

- METHOD SUMMARY: Double-blind, placebo controlled, ascending single dose pharmacokinetic study of oral DPC 333 in healthy subjects
- Format: in vivo, human
- CONDITION LABEL: both sexes, human, plasma, oral; single dose of 345 mg; read-out: mean AUC from time zero to time infinity, range
MEASUREMENT TYPE: AUC

input: Name the reported AUC value associated with the compound Cc1cc(COc2ccc([C@]3(N)CCN([C@H](CC(C)C)C(=O)NO)C3=O)cc2)c2ccccc2n1 [DPC 333]
output: 18.4 to 28.8 µM·h

* * *

- METHOD SUMMARY: Comparison of DPC 333 pharmacokinetics by gender in fasted subjects
- Assay type: in vivo, human
- CONDITION LABEL: male, human, plasma, oral, 225 mg, Males (n = 6), Part 2: 225 mg (fasted), mean ± SD
MEASUREMENT TYPE: AUC(0-inf) (µM·h)
Form entry: value (µM·h) — number only.

input: Name the reported AUC(0-inf) value associated with the compound Cc1cc(COc2ccc([C@]3(N)CCN([C@H](CC(C)C)C(=O)NO)C3=O)cc2)c2ccccc2n1
output: 12.5

* * *

- METHOD SUMMARY: Double-blind, placebo controlled, ascending single dose pharmacokinetic study of oral DPC 333 in healthy subjects
- Type: in vivo, human
- CONDITION LABEL: both sexes, human, plasma, oral; single dose of 25 mg; read-out: mean AUC from time zero to time infinity, range
- Method: The safety, tolerability, and pharmacokinetics of an oral dose form of DPC 333 were evaluated in a double-blind, placebo controlled, ascending single dose study in healthy male and female human subjects. Subjects in each cohort were randomized to receive either a single dose of DPC 333 (n=6) or placebo (n=2). […] The following pharmacokinetic parameters for DPC 333 were assessed following a single dose administration of the DPC 333 oral dosage form to a subject: Cmax, Tmax, AUC, T1/2, Clo, and C12. […]
MEASUREMENT TYPE: AUC

input: Name the reported AUC value associated with the compound Cc1cc(COc2ccc([C@]3(N)CCN([C@H](CC(C)C)C(=O)NO)C3=O)cc2)c2ccccc2n1 [DPC 333]
output: 0.45 to 0.9 µM·h

* * *

- METHOD SUMMARY: Double-blind, placebo controlled, ascending single dose pharmacokinetic study of oral DPC 333 in healthy subjects
- Type: in vivo, human
- CONDITION LABEL: both sexes, human, plasma; single oral dose 40 mg, healthy volunteers, n = 6; read-out: Cmax Mean
MEASUREMENT TYPE: Cmax (nM)
Form entry: value (nM) — number only.

input: Name the reported Cmax value associated with the molecule Cc1cc(COc2ccc([C@]3(N)CCN([C@H](CC(C)C)C(=O)NO)C3=O)cc2)c2ccccc2n1
output: 505

* * *

- METHOD SUMMARY: Effect of food on pharmacokinetics of oral DPC 333, two period crossover study (fasted vs high-fat breakfast)
- Type: in vivo, human
- CONDITION LABEL: male, human, plasma, po, 225 mg, Fasted, 225 mg single oral dose, male subjects, n = 6, mean ± SD
MEASUREMENT TYPE: AUC(0-t) (µM·h)
Form entry: value (µM·h) — number only.

input: Name the reported AUC(0-t) value associated with the molecule Cc1cc(COc2ccc([C@]3(N)CCN([C@H](CC(C)C)C(=O)NO)C3=O)cc2)c2ccccc2n1
output: 12.4

* * *

- METHOD SUMMARY: Double-blind, placebo controlled, ascending single dose pharmacokinetic study of oral DPC 333 in healthy subjects
- Format: in vivo, human
- CONDITION LABEL: both sexes, human, plasma; single oral dose 345 mg, healthy volunteers, n = 6; read-out: Tmax Median
MEASUREMENT TYPE: Tmax (min)
Form entry: value (min) — number only.

input: Name the reported Tmax value associated with the molecule Cc1cc(COc2ccc([C@]3(N)CCN([C@H](CC(C)C)C(=O)NO)C3=O)cc2)c2ccccc2n1
output: 45

* * *

- METHOD SUMMARY: Double-blind, placebo controlled, ascending single dose pharmacokinetic study of oral DPC 333 in healthy subjects
- Format: in vivo, human
- CONDITION LABEL: both sexes, human, plasma; single oral dose 80 mg, healthy volunteers, n = 12; read-out: Cmax Mean
MEASUREMENT TYPE: Cmax (nM)
Form entry: value (nM) — number only.

input: Name the reported Cmax value associated with the molecule Cc1cc(COc2ccc([C@]3(N)CCN([C@H](CC(C)C)C(=O)NO)C3=O)cc2)c2ccccc2n1 [DPC 333]
output: 1420

* * *

- METHOD SUMMARY: Double-blind, placebo controlled, ascending single dose pharmacokinetic study of oral DPC 333 in healthy subjects
- Assay type: in vivo, human
- CONDITION LABEL: both sexes, human, plasma; single oral dose 25 mg, healthy volunteers, n = 6; read-out: C12 (plasma concentration at 12 hours) Mean
MEASUREMENT TYPE: concentration at 12 h (nM)
Form entry: value (nM) — number only.

input: Name the reported concentration at 12 h value associated with the compound Cc1cc(COc2ccc([C@]3(N)CCN([C@H](CC(C)C)C(=O)NO)C3=O)cc2)c2ccccc2n1 [DPC 333]
output: 4.41

* * *

- METHOD SUMMARY: Double-blind, placebo controlled, ascending single dose pharmacokinetic study of oral DPC 333 in healthy subjects
- Assay type: in vivo, human
- CONDITION LABEL: both sexes, human, plasma, oral; single dose of 120 mg; read-out: mean maximum plasma concentration (Cmax), range
MEASUREMENT TYPE: Cmax

input: Name the reported Cmax value associated with the compound Cc1cc(COc2ccc([C@]3(N)CCN([C@H](CC(C)C)C(=O)NO)C3=O)cc2)c2ccccc2n1 [DPC 333]
output: 1540 to 2340 nM

* * *

- METHOD SUMMARY: Double-blind, placebo controlled, ascending single dose pharmacokinetic study of oral DPC 333 in healthy subjects
- Format: in vivo, human
- CONDITION LABEL: both sexes, human, plasma; single oral dose 120 mg, healthy volunteers, n = 6
MEASUREMENT TYPE: AUC(0-inf) (µM·h)
Form entry: value (µM·h) — number only.

input: Name the reported AUC(0-inf) value associated with the compound Cc1cc(COc2ccc([C@]3(N)CCN([C@H](CC(C)C)C(=O)NO)C3=O)cc2)c2ccccc2n1
output: 4.77

* * *

- METHOD SUMMARY: Double-blind, placebo controlled, ascending single dose pharmacokinetic study of oral DPC 333 in healthy subjects
- Type: in vivo, human
- CONDITION LABEL: both sexes, human, plasma; single oral dose 80 mg, healthy volunteers, n = 12; read-out: C12 (plasma concentration at 12 hours) Mean
MEASUREMENT TYPE: concentration at 12 h (nM)
Form entry: value (nM) — number only.

input: Name the reported concentration at 12 h value associated with the compound Cc1cc(COc2ccc([C@]3(N)CCN([C@H](CC(C)C)C(=O)NO)C3=O)cc2)c2ccccc2n1
output: 20.4

* * *

- METHOD SUMMARY: Double-blind, placebo controlled, ascending single dose pharmacokinetic study of oral DPC 333 in healthy subjects
- Format: in vivo, human
- CONDITION LABEL: both sexes, human, plasma; single oral dose 40 mg, healthy volunteers, n = 6; read-out: Tmax Median
MEASUREMENT TYPE: Tmax (min)
Form entry: value (min) — number only.

input: Name the reported Tmax value associated with the molecule Cc1cc(COc2ccc([C@]3(N)CCN([C@H](CC(C)C)C(=O)NO)C3=O)cc2)c2ccccc2n1
output: 30

Values from patent US20030232079A1
